biological target: T1, human TSLP (human, UniProt Q969D9 29-159); assay: SPR
T1 construct: also called hTSLP; rhTSLP

- binder: "BDG38.115 (antibody, V domains shown, IgG1) VH: QMQLVESGGGVVQPGRSLTLSCAASGFEFRTYGMHWVRQAPGKGLEWLGVIWYDGSNTHYADSVKGRFTITRDNSKNTLNLQMNSLRAEDTAVYYCVRAPQWYLTAEAFDLWGQGTMVTVSS VL: SYILTQPPSVSVAPGQTATITCGGNLIGARLVHWYQQKPGQAPVLVIYDDSDRPSRIPERFSGSNSGNTATLTISDVEEGDEADYYCQVWDYSSNTYVFGGGTKLTVL"
  koff (s⁻¹): 0.000532
- binder: "BDG38.107 (antibody, V domains shown, IgG1) VH: QMQLVESGGGVVQPGRSLTLSCAASGFEFRTYGMHWVRQAPGKGLEWVGVIWYDGSNTHYADSVKGRFTITRDNSKNTLNLQMNSLRAEDTAVYYCVRAPQWYLTAEAFDLWGQGTMVTVSS VL: SYILTQPPSVSVAPGQTATITCGGNLIGARLVHWYQQKPGQAPVLVIYDDSDRPSRIPERFSGSNIGNTATLTIERVEEGDEADYYCQVWDYSSDSYVFGGGTKLTVL"
  koff (s⁻¹): "8.16e-05"
- binder: "BDG38.092 (antibody, V domains shown, IgG1) VH: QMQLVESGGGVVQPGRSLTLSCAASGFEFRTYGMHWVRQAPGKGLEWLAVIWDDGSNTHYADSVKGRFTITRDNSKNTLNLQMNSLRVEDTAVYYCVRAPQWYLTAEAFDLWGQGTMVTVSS VL: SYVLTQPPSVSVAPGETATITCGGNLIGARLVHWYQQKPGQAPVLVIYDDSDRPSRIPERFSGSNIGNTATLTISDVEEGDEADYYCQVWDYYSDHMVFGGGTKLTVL"
  koff (s⁻¹): "2.46e-05"
- binder: "BDG38.090 (antibody, V domains shown, IgG1) VH: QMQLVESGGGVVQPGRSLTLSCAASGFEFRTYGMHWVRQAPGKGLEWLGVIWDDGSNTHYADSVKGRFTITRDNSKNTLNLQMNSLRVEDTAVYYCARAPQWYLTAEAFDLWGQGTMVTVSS VL: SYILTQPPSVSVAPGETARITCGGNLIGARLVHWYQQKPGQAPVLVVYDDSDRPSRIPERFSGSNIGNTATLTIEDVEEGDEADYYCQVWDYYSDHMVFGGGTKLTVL"
  koff (s⁻¹): 0.000113
- binder: "BDG38.110 (antibody, V domains shown, IgG1) VH: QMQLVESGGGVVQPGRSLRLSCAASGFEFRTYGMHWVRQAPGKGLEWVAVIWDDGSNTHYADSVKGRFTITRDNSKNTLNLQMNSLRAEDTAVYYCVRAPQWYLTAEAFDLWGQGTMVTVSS VL: SYILTQPPSVSVAPGETTRITCGGNLIGAKLVHWYQQKPGQAPVLVIYDDSDRPSRIPERFSGSNIGNTATLTIEDVEAGDEADYYCQVWDYSSNHMVFGGGTKLTVL"
  koff (s⁻¹): 0.000298

All figures here come from patent US20240059769A1.
